system: PKAC-alpha; construct: gene PRKACA; settings: concentration: 1 μM, replicates: in singlicate; n = 1;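 note: KINOMEscan kinase panel screen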
Criterion: %Inh strictly less than 5%. Met: label 1. Not met: label 0.

As a guide, the following entries are already answered.
>>> group("O=C(Nc1n[nH]c2nc(-c3ccccc3O)ccc12)C1CC1")
"label 1"
>>> group("Cc1cccc(Nc2nc(NCCN)ncc2C(N)=O)c1")
"label 1"
>>> group("CCOc1nccc(-c2c(-c3ccc(F)cc3)ncn2C2CCNCC2)n1")
"label 0"

Consider "COc1ccc(C)c(Nc2ccnc(Nc3ccc(-c4cnc[nH]4)cc3)n2)c1.Cl" . Does its %Inh lie strictly below 5%?
label 0

Query "COc1ccc(NC(=O)c2ccoc2)cc1-c1ccc(C(=O)NCC2CC2)cc1" next
label 0

Then this molecule: "Cc1cc(-c2c(-c3ccc(F)cc3)ncn2CCCN2CCOCC2)nc(N)n1"
label 0

====

tested on: CLK2; settings: concentration: 1 μM, replicates: in singlicate; n = 1
measured-property: %Inh (%)
Answers are plain numbers, in %.

Look over these answered cases.
>>> result_value("CCn1cnc2c(NCc3ccccc3)ncnc21")
10
>>> result_value("Nc1ncc(-c2cn[nH]c2)c2scc(-c3ccc4c(c3)CCN4C(=O)Cc3ccccc3)c12")
0
>>> result_value("Cc1ccc(NC(=O)c2ccnc(N3CCCCC3)c2)cc1-c1ccc(C(=O)NCC2CC2)cc1")
0

Give %Inh for each of the items listed below.
1. Cc1ccc(NC(=O)c2ccc(Cl)c(Cl)c2)cc1-c1ccc(C(=O)Nc2ccncc2)cc1
2. CN(C)CCOc1ccc(-c2cc(-c3ccc(Cl)c(O)c3)c(-c3ccncc3)[nH]2)cc1.Cl.Cl
3. COc1cccc(-c2nc(-c3ccccc3)[nH]c2-c2ccncc2)c1
4. O=C(Nc1c(F)cccc1F)c1cc(C(=O)c2ccccc2F)c[nH]1

0
1
0
0

Give %Inh for each of the items listed below.
1. COC(=O)Nc1nc2ccc(Oc3ccc(NC(=O)Nc4cc(C(F)(F)F)ccc4F)cc3)cc2[nH]1.Cl
2. Cc1cc(-c2ccnc(Nc3cccc(C#N)c3)n2)cc(C)c1O
3. COc1cccc(CC(=O)N2CCc3cc(-c4cn(C)c5ncnc(N)c45)ccc32)c1
4. CN(c1ccc(NC(=O)N2CCN(CCCN3CCOCC3)CC2)cc1)c1ccnc(Nc2ccc(CS(C)(=O)=O)cc2)n1.Cl
5. Nc1ncc(-c2ccc3nccc(-c4ccncc4)c3c2)cc1S(=O)(=O)N1CCCCC1
6. Cc1ccc(O)cc1Nc1ccnc2ccc(C(C)(C)C)cc12
7. Fc1cc(Cl)ccc1Nc1ccnc2cc(-c3ccc(CN4CCOCC4)o3)ccc12
8. Nc1cccc(-c2ccc3c(N)n[nH]c3c2)c1

[0, 89, 0, 0, 67, 26, 0, 10]

// each compound listed below needs its %Inh
1. O=C(Nc1n[nH]c2cc(-c3cccs3)ccc12)C1CC1
2. CN(c1ccc2c(c1)nc(NCc1ccccc1)n2C)c1ccnc(Nc2ccc(CS(C)(=O)=O)cc2)n1.Cl
3. Cc1ccc(NC(=O)c2cccc(N3CCCCC3)c2)cc1-c1ccc(C(=O)NCC2CC2)cc1
4. Cl.N#CCc1ccc(Nc2nccc(Nc3ccc(Oc4ccccc4)cc3)n2)cc1
5. Cc1cccc(Nc2nc(NCCN)ncc2C(N)=O)c1
6. CN(C)CCNS(=O)(=O)c1ccc(-c2ccnc3[nH]ccc23)cc1

1: 21; 2: 0; 3: 1; 4: 9; 5: 22; 6: 92.3

# map each compound to its %Inh
1. CC(C)c1nc(-c2cccc(NS(=O)(=O)c3c(F)cccc3F)c2)c(-c2ccnc(Nc3ccc(N4CCOCC4)nc3)n2)s1.Cl
2. CC(C)(C)c1ccc(C(=O)Nc2cn3cc(-n4ccnc4)ccc3n2)cc1
3. CCNc1nccc(-c2c(-c3ccc(F)cc3)ncn2C2CCN(C)CC2)n1
4. NCCC(NC(=O)c1cc(Br)c(-c2ccnc3[nH]ccc23)s1)c1ccccc1.O=C(O)C(F)(F)F.O=C(O)C(F)(F)F (centres unmarked)
5. Cc1cccc(Nc2nc(N[C@H]3CCCC[C@H]3N)ncc2C(N)=O)c1.Cl
6. Cl.Cl.NCC(NC(=O)c1cc(-c2cccnc2)c(-c2ccnc3[nH]ccc23)s1)c1ccccc1 (centres unmarked)

0
79
45
37
28
51

Give measured %Inh for every item shown.
1. Cc1ccc(-c2ccc3occ(-c4ccc(S(C)=O)cc4)c3c2)nn1 (centres unmarked)
2. O=C(Nc1n[nH]c2nc(-c3cccc(O)c3)ccc12)C1CC1
3. CN(C)c1ncnc2nc[nH]c12

[0, 20, 23]

// batch mode: one %Inh value per listed entry
1. COc1cccc(NC(=O)NCCNc2ccnc(Nc3ccc(F)cc3)n2)c1
2. O=C(Nc1n[nH]c2nc(-c3ccccc3O)ccc12)C1CC1
3. Cl.O=C(Nc1ccc(Oc2ccc3[nH]c(NC(=O)c4ccco4)nc3c2)cc1)Nc1cc(C(F)(F)F)ccc1F
4. O=C1NC(=O)C(c2ccccc2Cl)=C1Nc1cccc(Cl)c1
5. CNc1nccc(-c2ccc3c(N)n[nH]c3c2)n1

[0, 16, 0, 73, 84]

Recorded values, source paper PMC5540273.
